- Test system: Jurkat
- PROCEDURE TEXT: Induction of apoptosis in human Jurkat cells assessed as apoptotic cells at 50 uM after 24 hrs using annexin-V/Propidium iodide by flow cytometry
- Type: functional
MEASUREMENT TYPE: Activity (%)
Record the value in %, omitting the unit from your answer.

Look over these answered cases.
COMPOUND: N#CC1=C(N)OC2=C(C(=O)c3ccccc3C2=O)C1c1cccs1 (centres undefined)
Activity (%): 11.2
--
COMPOUND: N#CC1=C(N)OC2=C(C(=O)c3ccccc3C2=O)C1c1ccc(C(=O)O)cc1 (centres undefined)
Activity (%): 4.1
--
COMPOUND: N#CC1=C(N)OC2=C(C(=O)c3ccccc3C2=O)C1c1ccc(OC(F)(F)F)cc1 (centres undefined)
Activity (%): 13.5

For the next question, use this compound.
Assign Activity to the following record: N#CC1=C(N)OC2=C(C(=O)c3ccccc3C2=O)C1c1ccc(O)cc1 (centres undefined)
16.7

---

- Test system: Jurkat
- PROCEDURE TEXT: Induction of apoptosis in human Jurkat cells assessed as apoptotic cells at 50 uM after 24 hrs using annexin-V/Propidium iodide by flow cytometry
- Type: functional
Output MET for records whose Activity is lower than 20%, NOT MET for records at or above 20%.

Completed entries (count: 6):
COMPOUND: N#CC1=C(N)OC2=C(C(=O)c3ccccc3C2=O)C1c1ccccc1Cl (stereo not given)
DISCRETE LABEL: MET
//
COMPOUND: N#CC1=C(N)OC2=C(C(=O)c3ccccc3C2=O)C1c1ccc(C(F)(F)F)cc1 (stereo not given)
DISCRETE LABEL: MET
//
COMPOUND: N#CC1=C(N)OC2=C(C(=O)c3ccccc3C2=O)C1c1c(F)cccc1Cl (stereo not given)
DISCRETE LABEL: NOT MET
//
COMPOUND: N#CC1=C(N)OC2=C(C(=O)c3ccccc3C2=O)C1c1cccc(Cl)c1 (stereo not given)
DISCRETE LABEL: NOT MET
//
COMPOUND: N#CC1=C(N)OC2=C(C(=O)c3ccccc3C2=O)C1c1ccc(-c2ccccc2)cc1 (stereo not given)
DISCRETE LABEL: MET
//
COMPOUND: N#CC1=C(N)OC2=C(C(=O)c3ccccc3C2=O)C1c1cccc([N+](=O)[O-])c1 (stereo not given)
DISCRETE LABEL: NOT MET

Criterion: Activity strictly below 20%. Is it met by N#CC1=C(N)OC2=C(C(=O)c3ccccc3C2=O)C1c1ccc([N+](=O)[O-])cc1 (stereo not given) ?
NOT MET

Criterion: Activity strictly below 20%. Is it met by `CC1(C)CCC2=C(O1)C(=O)c1ccccc1C2=O` ?
MET

Criterion: Activity strictly below 20%. Is it met by `CC1(C)CCC2=C(O1)c1ccccc1C(=O)C2=O` ?
NOT MET

Criterion: Activity strictly below 20%. Is it met by Cc1ccc(C2C(C#N)=C(N)OC3=C2C(=O)c2ccccc2C3=O)o1 (stereo not given) ?
NOT MET
